Source of measurements: the supplement of paper PMC10567573

B1: STEAP1 (parent)
chain: LWKMKPRRNLEEDDYLHKDTGETS

- Variants of: B1
- assay name: protein stability index of a GFP-peptide fusion (GPS, HEK-293T) (PSI 1-6); higher = more stable;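 note: lentivirally expressed fusions sorted by FACS into six bins by GFP to DsRed ratio, PSI derived from sequencing read proportions per bin multiplied by bin number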
- test parameters: c terminus: a fixed tail appended
protein stability index values by entry
Form: value (number only, do not type unit).

INSERT INTO measurements (sequence_change, result_number) VALUES
  ('H17M', 4.29);

Indicate the recorded protein stability index value for this variant: L10G
4.02

Indicate the recorded protein stability index value for this variant: E11H
4.26

Indicate the recorded protein stability index value for this variant: G21E
4.65

Indicate the recorded protein stability index value for this variant: K18Q
4.46

Indicate the recorded protein stability index value for this variant: D19Q
4.1

Indicate the recorded protein stability index value for this variant: D14P
4.34

Indicate the recorded protein stability index value for this variant: R8E
4.83
